System: SK-BR-3
METHOD_SUMMARY: normalised response (% of control), CellTiter-Glo; higher = more viable cells (100 = DMSO, 0 = benzethonium chloride kill control)
PARTICULARS: incubation time: 72 h
Each item that follows carries a reported normalised response.
MEASURED_ATTRIBUTE: normalised response (%)

- CC(C)(C)Cn1c(N)nc2ccc(-c3[nH]c(C(C)(C)C)nc3-c3ccc(F)cc3)nc21 (100 nM): 104
- CC[C@@H]1C(=O)N(C)c2cnc(Nc3ccc(C(=O)N[C@H]4CC[C@H](N5CCN(CC6CC6)CC5)CC4)cc3OC)nc2N1C(C)C [Volasertib] (10 nM): 54.8
- CCc1cnn2c(NCc3ccc[n+]([O-])c3)cc(N3CCCC[C@H]3CCO)nc12 [Dinaciclib] (10 nM): 37.4
